- system: T1, Anti-CD28 scFv (VH-linker 1-VL) (biotinylated (site not stated))
- T1 construct: biotinylated and captured on neutravidin coated plates in the phage ELISA
- T1 sequence (scFv, as listed by the source): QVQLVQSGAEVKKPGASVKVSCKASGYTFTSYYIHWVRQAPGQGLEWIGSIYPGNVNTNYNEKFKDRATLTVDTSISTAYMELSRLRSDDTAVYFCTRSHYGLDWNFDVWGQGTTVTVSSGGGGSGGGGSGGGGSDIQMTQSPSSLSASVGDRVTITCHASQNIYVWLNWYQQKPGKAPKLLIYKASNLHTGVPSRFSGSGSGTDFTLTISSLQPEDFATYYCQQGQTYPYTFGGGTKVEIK
- test description: phage binding ELISA on captured anti-CD28 scFv, wells pre-incubated with soluble CD28 (competitor);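 further: crude clonal phage supernatants added without washing, bound phage detected by HRP-conjugated anti-M13 antibody, control wells held blocking buffer alone instead of CD28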
We begin with a simple list: items and their reported CD28 scFv signal in presence of CD28.
Lab note: jot the number down without any unit.

Field: example entries. Status: answers known.
binder	recorded number
MDWCPRDLWNWCFN [Phage-336]	0.39
MDWCPMNLWHECFA [Phage-351]	0.16
MYWCPINMWDYCYA [Phage-422]	0.088

[ask] Please give the measured CD28 scFv signal in presence of CD28 for this binder: MHWCPRDLWHVCFN [Phage-327]
[reply] 0.15

[ask] Please give the measured CD28 scFv signal in presence of CD28 for this binder: MDWCPRHLWDECFN [Phage-341]
[reply] 0.268

All values here come from patent US20230357447A1.
